- run-parameters: in NMP, 293.15 K
measure-name: solubility (mole fraction)

In: # get_value(readout='solubility (mole fraction)', item= `Cn1cnc([N+](=O)[O-])c1Cl` )
Out: 0.181

* * *

- run-parameters: in acetone, 298.15 K
measure-name: solubility (mole fraction)

In: # get_value(readout='solubility (mole fraction)', item= `Cn1cnc([N+](=O)[O-])c1Cl` )
Out: 0.0326

* * *

- run-parameters: in methanol, 318.15 K
measure-name: solubility (mole fraction)
Please give the numeric answer without any surrounding text.

In: # get_value(readout='solubility (mole fraction)', item= `Cn1cnc([N+](=O)[O-])c1Cl` )
Out: 0.00936

* * *

- run-parameters: in methanol, 310.65 K
measure-name: solubility (mole fraction)

In: # get_value(readout='solubility (mole fraction)', item= `Cn1cnc([N+](=O)[O-])c1Cl` )
Out: 0.00756

* * *

- run-parameters: in chloroform, 308.15 K
measure-name: solubility (mole fraction)
Please give the numeric answer without any surrounding text.

In: # get_value(readout='solubility (mole fraction)', item= `Cn1cnc([N+](=O)[O-])c1Cl` )
Out: 0.0298

* * *

- run-parameters: in ethyl acetate, 300.65 K
measure-name: solubility (mole fraction)

In: # get_value(readout='solubility (mole fraction)', item= `Cn1cnc([N+](=O)[O-])c1Cl` )
Out: 0.015

* * *

- run-parameters: in ethyl acetate, 283.15 K
measure-name: solubility (mole fraction)
Please give the numeric answer without any surrounding text.

In: # get_value(readout='solubility (mole fraction)', item= `Cn1cnc([N+](=O)[O-])c1Cl` )
Out: 0.00846

* * *

- run-parameters: in chloroform, 288.15 K
measure-name: solubility (mole fraction)
Please give the numeric answer without any surrounding text.

In: # get_value(readout='solubility (mole fraction)', item= `Cn1cnc([N+](=O)[O-])c1Cl` )
Out: 0.0156

* * *

- run-parameters: in ethyl acetate, 285.65 K
measure-name: solubility (mole fraction)
Please give the numeric answer without any surrounding text.

In: # get_value(readout='solubility (mole fraction)', item= `Cn1cnc([N+](=O)[O-])c1Cl` )
Out: 0.00911

* * *

- run-parameters: in isopropanol, 283.15 K
measure-name: solubility (mole fraction)
Please give the numeric answer without any surrounding text.

In: # get_value(readout='solubility (mole fraction)', item= `Cn1cnc([N+](=O)[O-])c1Cl` )
Out: 0.00108

* * *

- run-parameters: in chloroform, 310.65 K
measure-name: solubility (mole fraction)
Please give the numeric answer without any surrounding text.

In: # get_value(readout='solubility (mole fraction)', item= `Cn1cnc([N+](=O)[O-])c1Cl` )
Out: 0.0322

* * *

- run-parameters: in toluene, 293.15 K
measure-name: solubility (mole fraction)
Please give the numeric answer without any surrounding text.

In: # get_value(readout='solubility (mole fraction)', item= `Cn1cnc([N+](=O)[O-])c1Cl` )
Out: 0.00272

* * *

- run-parameters: in ethyl acetate, 305.65 K
measure-name: solubility (mole fraction)

In: # get_value(readout='solubility (mole fraction)', item= `Cn1cnc([N+](=O)[O-])c1Cl` )
Out: 0.0177

* * *

- run-parameters: in isopropanol, 315.65 K
measure-name: solubility (mole fraction)
Please give the numeric answer without any surrounding text.

In: # get_value(readout='solubility (mole fraction)', item= `Cn1cnc([N+](=O)[O-])c1Cl` )
Out: 0.00533

* * *

- run-parameters: in toluene, 310.65 K
measure-name: solubility (mole fraction)

In: # get_value(readout='solubility (mole fraction)', item= `Cn1cnc([N+](=O)[O-])c1Cl` )
Out: 0.00518

* * *

- run-parameters: in n-propanol, 313.15 K
measure-name: solubility (mole fraction)
Please give the numeric answer without any surrounding text.

In: # get_value(readout='solubility (mole fraction)', item= `Cn1cnc([N+](=O)[O-])c1Cl` )
Out: 0.00522

* * *

- run-parameters: in isopropanol, 310.65 K
measure-name: solubility (mole fraction)
Please give the numeric answer without any surrounding text.

In: # get_value(readout='solubility (mole fraction)', item= `Cn1cnc([N+](=O)[O-])c1Cl` )
Out: 0.00408

* * *

- run-parameters: in chloroform, 295.65 K
measure-name: solubility (mole fraction)
Please give the numeric answer without any surrounding text.

In: # get_value(readout='solubility (mole fraction)', item= `Cn1cnc([N+](=O)[O-])c1Cl` )
Out: 0.0201

* * *

- run-parameters: in n-propanol, 300.65 K
measure-name: solubility (mole fraction)
Please give the numeric answer without any surrounding text.

In: # get_value(readout='solubility (mole fraction)', item= `Cn1cnc([N+](=O)[O-])c1Cl` )
Out: 0.00308

* * *

- run-parameters: in ethyl acetate, 315.65 K
measure-name: solubility (mole fraction)

In: # get_value(readout='solubility (mole fraction)', item= `Cn1cnc([N+](=O)[O-])c1Cl` )
Out: 0.0235

* * *

- run-parameters: in n-propanol, 285.65 K
measure-name: solubility (mole fraction)
Please give the numeric answer without any surrounding text.

In: # get_value(readout='solubility (mole fraction)', item= `Cn1cnc([N+](=O)[O-])c1Cl` )
Out: 0.00168

* * *

- run-parameters: in NMP, 303.15 K
measure-name: solubility (mole fraction)
Please give the numeric answer without any surrounding text.

In: # get_value(readout='solubility (mole fraction)', item= `Cn1cnc([N+](=O)[O-])c1Cl` )
Out: 0.209

* * *

- run-parameters: in methanol, 295.65 K
measure-name: solubility (mole fraction)
Please give the numeric answer without any surrounding text.

In: # get_value(readout='solubility (mole fraction)', item= `Cn1cnc([N+](=O)[O-])c1Cl` )
Out: 0.0046

* * *

- run-parameters: in chloroform, 298.15 K
measure-name: solubility (mole fraction)
Please give the numeric answer without any surrounding text.

In: # get_value(readout='solubility (mole fraction)', item= `Cn1cnc([N+](=O)[O-])c1Cl` )
Out: 0.0219

* * *

- run-parameters: in 1,4-dioxane, 293.15 K
measure-name: solubility (mole fraction)
Please give the numeric answer without any surrounding text.

In: # get_value(readout='solubility (mole fraction)', item= `Cn1cnc([N+](=O)[O-])c1Cl` )
Out: 0.0109

* * *

- run-parameters: in ethanol, 290.65 K
measure-name: solubility (mole fraction)

In: # get_value(readout='solubility (mole fraction)', item= `Cn1cnc([N+](=O)[O-])c1Cl` )
Out: 0.00283

* * *

- run-parameters: in acetone, 313.15 K
measure-name: solubility (mole fraction)
Please give the numeric answer without any surrounding text.

In: # get_value(readout='solubility (mole fraction)', item= `Cn1cnc([N+](=O)[O-])c1Cl` )
Out: 0.0555

* * *

- run-parameters: in ethanol, 298.15 K
measure-name: solubility (mole fraction)
Please give the numeric answer without any surrounding text.

In: # get_value(readout='solubility (mole fraction)', item= `Cn1cnc([N+](=O)[O-])c1Cl` )
Out: 0.00381

* * *

- run-parameters: in isopropanol, 313.15 K
measure-name: solubility (mole fraction)

In: # get_value(readout='solubility (mole fraction)', item= `Cn1cnc([N+](=O)[O-])c1Cl` )
Out: 0.00468

* * *

- run-parameters: in ethyl acetate, 295.65 K
measure-name: solubility (mole fraction)
Please give the numeric answer without any surrounding text.

In: # get_value(readout='solubility (mole fraction)', item= `Cn1cnc([N+](=O)[O-])c1Cl` )
Out: 0.0128

* * *

- run-parameters: in 2-butanone, 300.65 K
measure-name: solubility (mole fraction)
Please give the numeric answer without any surrounding text.

In: # get_value(readout='solubility (mole fraction)', item= `Cn1cnc([N+](=O)[O-])c1Cl` )
Out: 0.0282

* * *

- run-parameters: in 1,4-dioxane, 288.15 K
measure-name: solubility (mole fraction)

In: # get_value(readout='solubility (mole fraction)', item= `Cn1cnc([N+](=O)[O-])c1Cl` )
Out: 0.00882

* * *

- run-parameters: in isopropanol, 288.15 K
measure-name: solubility (mole fraction)
Please give the numeric answer without any surrounding text.

In: # get_value(readout='solubility (mole fraction)', item= `Cn1cnc([N+](=O)[O-])c1Cl` )
Out: 0.00142

* * *

- run-parameters: in n-propanol, 315.65 K
measure-name: solubility (mole fraction)

In: # get_value(readout='solubility (mole fraction)', item= `Cn1cnc([N+](=O)[O-])c1Cl` )
Out: 0.00592

* * *

- run-parameters: in isopropanol, 300.65 K
measure-name: solubility (mole fraction)
Please give the numeric answer without any surrounding text.

In: # get_value(readout='solubility (mole fraction)', item= `Cn1cnc([N+](=O)[O-])c1Cl` )
Out: 0.00247

* * *

- run-parameters: in 2-butanone, 313.15 K
measure-name: solubility (mole fraction)
Please give the numeric answer without any surrounding text.

In: # get_value(readout='solubility (mole fraction)', item= `Cn1cnc([N+](=O)[O-])c1Cl` )
Out: 0.0434

* * *

- run-parameters: in acetone, 293.15 K
measure-name: solubility (mole fraction)
Please give the numeric answer without any surrounding text.

In: # get_value(readout='solubility (mole fraction)', item= `Cn1cnc([N+](=O)[O-])c1Cl` )
Out: 0.027
